Target: ATPase family AAA domain-containing protein 2 (Homo sapiens)
Assay text: Inhibition of recombinant human N-terminal GST-tagged ATAD2 bromodomain (981 to 1146 residues) expressed in Escherichia coli using biotinylated peptide SGRGK(Ac)GGKGLGKGGAKRHRKVLRDNGSGS as substrate incubated for 3 hrs by TR-FRET assay

{"Molecule smiles": "CC(=O)c1nc(NC(=O)[C@@H](C)NC(=N)N)sc1-c1cncc(N)c1", "IC50": "> 150 µM"}
{"Molecule smiles": "CC(=O)c1nc(NC(=O)C(C)(C)N)sc1-c1cncc(N)c1", "IC50": "> 150 µM"}
{"Molecule smiles": "CC(=O)c1nc(NC(=O)[C@H]2CNCCN2)sc1-c1ccc(N2CCCC2=O)cc1", "IC50": "> 150 µM"}
{"Molecule smiles": "C[C@@H](N)C(=O)Nc1nc2c(s1)CCCC2=O", "IC50": "> 150 µM"}
{"Molecule smiles": "CC(=O)c1nc(NC(=O)[C@H]2CNCCN2CCC2CCC(F)(F)CC2)sc1-c1cncc(N)c1", "IC50": "> 150 µM"}
{"Molecule smiles": "CC(=O)c1csc(NC(=O)[C@H]2CNCCN2)n1", "IC50": "> 150 µM"}
{"Molecule smiles": "CC(=O)c1csc(NC(=O)[C@@H](C)NC(=N)N)n1", "IC50": "140 µM"}
{"Molecule smiles": "CC(=O)c1csc(NC(=O)[C@@H](C)N)n1", "IC50": "336 µM"}
{"Molecule smiles": "CC(=O)c1nc(NC(=O)[C@H]2CNCCN2)sc1-c1ccc(C(=O)N2CCOCC2)cc1", "IC50": "> 150 µM"}
{"Molecule smiles": "CC(=O)c1nc(NC(=O)[C@@H](C)N)sc1-c1cccc(O)c1", "IC50": "> 150 µM"}
{"Molecule smiles": "CC(=O)c1nc(NC(=O)[C@@H](C)N)sc1-c1cccnc1", "IC50": "95 µM"}
{"Molecule smiles": "CC(=O)c1nc(NC(=O)[C@@H](C)N)sc1-c1cccc(N)c1", "IC50": "> 150 µM"}
{"Molecule smiles": "CC(=O)c1csc(NC(=O)C(C)(C)N)n1", "IC50": "> 150 µM"}
{"Molecule smiles": "CC(=O)c1nc(NC(=O)[C@@H](C)N)sc1-c1cncc(N)c1", "IC50": "> 150 µM"}
{"Molecule smiles": "CC(=O)c1csc(NC(=O)[C@H]2CNCCN2CCC2CCC(F)(F)CC2)n1", "IC50": "15 µM"}
{"Molecule smiles": "CC(=O)c1nc(NC(=O)[C@H]2CNCCN2)sc1-c1cncc(N)c1", "IC50": "> 150 µM"}
{"Molecule smiles": "CC(=O)c1nc(NC(=O)C2(N)CCC2)sc1-c1cncc(N)c1", "IC50": "80 µM"}
{"Molecule smiles": "COc1cccc(-c2sc(NC(=O)[C@@H](C)N)nc2C(C)=O)c1", "IC50": "> 150 µM"}

* * *

Target: ATPase family AAA domain-containing protein 2 (Homo sapiens, UniProt Q6PL18)
Sequence (Q6PL18 whole entry, the tested form may be a part): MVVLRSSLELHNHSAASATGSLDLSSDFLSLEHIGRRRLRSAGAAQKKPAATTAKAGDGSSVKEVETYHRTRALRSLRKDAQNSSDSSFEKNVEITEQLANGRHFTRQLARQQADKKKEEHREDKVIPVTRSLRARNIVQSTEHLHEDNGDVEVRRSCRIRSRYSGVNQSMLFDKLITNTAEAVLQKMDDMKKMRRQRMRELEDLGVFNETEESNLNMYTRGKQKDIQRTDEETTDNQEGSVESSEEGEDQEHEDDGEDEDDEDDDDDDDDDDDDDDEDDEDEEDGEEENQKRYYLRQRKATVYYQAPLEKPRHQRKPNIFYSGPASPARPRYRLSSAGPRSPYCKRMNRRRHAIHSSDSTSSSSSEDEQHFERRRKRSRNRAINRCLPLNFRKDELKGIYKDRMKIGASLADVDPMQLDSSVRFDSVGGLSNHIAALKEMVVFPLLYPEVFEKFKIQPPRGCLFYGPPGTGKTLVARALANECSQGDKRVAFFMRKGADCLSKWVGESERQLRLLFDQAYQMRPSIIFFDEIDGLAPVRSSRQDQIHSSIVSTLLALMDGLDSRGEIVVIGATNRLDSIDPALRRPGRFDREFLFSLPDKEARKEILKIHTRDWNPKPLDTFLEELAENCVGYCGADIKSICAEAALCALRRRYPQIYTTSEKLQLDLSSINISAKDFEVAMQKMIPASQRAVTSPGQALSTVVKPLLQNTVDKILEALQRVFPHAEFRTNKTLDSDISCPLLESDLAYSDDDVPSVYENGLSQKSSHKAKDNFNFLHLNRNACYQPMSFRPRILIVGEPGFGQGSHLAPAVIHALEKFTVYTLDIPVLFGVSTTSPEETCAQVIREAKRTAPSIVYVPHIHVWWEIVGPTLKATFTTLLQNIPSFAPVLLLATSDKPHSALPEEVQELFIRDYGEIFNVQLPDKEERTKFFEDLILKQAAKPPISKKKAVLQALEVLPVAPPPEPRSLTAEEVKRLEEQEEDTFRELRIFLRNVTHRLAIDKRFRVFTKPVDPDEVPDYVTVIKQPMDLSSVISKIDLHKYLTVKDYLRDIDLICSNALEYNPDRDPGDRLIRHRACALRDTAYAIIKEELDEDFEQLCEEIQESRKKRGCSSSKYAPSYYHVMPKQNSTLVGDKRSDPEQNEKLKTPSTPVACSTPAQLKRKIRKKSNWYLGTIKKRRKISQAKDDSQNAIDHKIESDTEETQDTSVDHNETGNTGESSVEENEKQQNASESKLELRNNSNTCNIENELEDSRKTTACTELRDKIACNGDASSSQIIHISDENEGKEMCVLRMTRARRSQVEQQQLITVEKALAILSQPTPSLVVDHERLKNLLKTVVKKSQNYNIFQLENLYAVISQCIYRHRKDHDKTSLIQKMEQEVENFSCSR
Assay text: Binding affinity to recombinant human N-terminal GST-tagged ATAD2 bromodomain (981 to 1146 residues) expressed in Escherichia coli at 10 degree C by isothermal titration calorimetry
pKd: −log10 of the molar value.

{"Molecule smiles": "CC(=O)c1csc(NC(=O)[C@H]2CNCCN2CCC2CCC(F)(F)CC2)n1", "Target": "ATPase family AAA domain-containing protein 2 (Homo sapiens, UniProt Q6PL18)", "pKd": 4.60}
